FYI, the data here is from patent US20170044238A1.

Target: T1, protein A (UniProt P38507 37-477)
T1 construct: Bought (Pierce); immobilized on CM5 chip by amine coupling; also called recombinant protein A
Experiment: SPR (Biacore 3000), VH over immobilized protein A
measuredMetric: Kd (nM)
Value expressed in nM; do not type the unit.

Example entries begin here.
binder	Kd (nM)
HVHP413S (antibody, V domains shown, Cys49/Cys69 (Kabat) mutant of HVHP413; VH single-domain antibody; tag not specified) VH: QVQLVQSGGGLVKPGGSLRLSCAASGFTFSDYYMSWVRQAPGKGLEWVCFIYSGGSTYYADSVKGRFTCSRDNSKNTLYLQMNSLRAEDTAVYYCARESRVGGGAFDIWGQGTMVTVSS	1500
HVHP420S (antibody, V domains shown, Cys49/Cys69 (Kabat) mutant of HVHP420; VH single-domain antibody; tag not specified) VH: QVQLVESGGGLVKPGGSLRLSCAASGFTFSNAWMTWVRQAPGKGLEWVCRIKTKTDGGTTDYAAPVKGRFTCSRDDSKNTLYLQMNSLKTEDTAVYYCTTDRDHSSGSWGQGTLVTVSS	2200
HVHB82S (antibody, V domains shown, Cys49/Cys69 (Kabat) mutant of HVHB82; VH single-domain antibody; tag not specified) VH: QVQLQESGGGLVQPGGSLRLSCAASGFTFSSYAMSWVRQAPGKGLEWVCAISGSGGSTYYADSVKGRFTCSRDNSKNTLYLQMNSLRAEDTAVYYCGTDMEVWGKGTTVTVSS	1200
HVHPC235 (antibody, V domains shown, Human VH single-domain antibody (wild-type), tested alone; tag not specified; also called HVHAmC235; HVHC235) VH: QVQLVESGGGLIKPGGSLRLSCAASGFSVISESMTWVRQAPGKGLEWVSAISSSGGSTYYADSVKGRFTISRDNSKNTVHLQMNSLRADDTAVYYCAAKKIDGARYDYWGQGTMVTVSS	300
HVHP421S (antibody, V domains shown, Cys49/Cys69 (Kabat) mutant of HVHP421; VH single-domain antibody; tag not specified) VH: QLQLQESGGGVVQPGRSLRLSCAASGFTFSSYAMSWVRQAPGKGLEWVCAISGSGGSTYYADSVKGRFTCSRDNSKNTLYLQMNSLRAEDTAVYYCAKDGKGGSSGYDHPDYWGQGTLVTVSS	2800

Exercise: Quick one: Kd for HVHAm302S (antibody, V domains shown, Cys49/Cys69 (Kabat) mutant of HVHAm302; VH single-domain antibody; tag not specified) VH: QVQLVESGGGLIKPGGSLRLSCAASGDTVSDESMTWVRQAPGKGLEWVCAISSSGGSTYYADSVKGRFTCSRDNSKNTVYLQMNSLRAEDTAVYYCVTDNRSCQTSLCTSTTRSWGQGTMVTVSS ?
Key: 10000

Exercise: Kd for HVHP426S (antibody, V domains shown, Cys49/Cys69 (Kabat) mutant of HVHP426; VH single-domain antibody; tag not specified) VH: QVQLVQSGGGVVQPGRSLRLSCAASGFIVDGYAMHWVRQAPGQGLEWVCVTNNGGSTSYADSVKGRFTCSRDNSKNTVYLQMNSLRAEDTAVYYCARQSITGPTGAFDIWGQGTMVTVSS ?
Key: 3400

Exercise: Form field: reported Kd of HVHP429S (antibody, V domains shown, Cys49/Cys69 (Kabat) mutant of HVHP429; VH single-domain antibody; tag not specified) VH: EVQLVESGGTLVQPGGSLRLSCAASGFTFINYAMSWVRQAPDKGLDWVCTISNNGGATYYADSVKGRFTCSRDNSNNTLYLQMNSLRPDDTAVYYCAKGPINTGRYGDWGQGTLVTVSS
Key: 5500
